Experiment: Concentration in autopsy samples of cerebral cortex of deceased patients, HPLC-UV
Format: in vivo, human
Settings: human, cerebral cortex, 1500 mg; patient 9, cumulative dose 1,500 mg, treatment 14 days, 12 h between last administration and death, 15 h between death and sampling, LLOQ 0.05 μg/g; read-out: Concn in cerebral cortex (autopsy)
Starred links: 1 amine or outer side, 2 acyl side, 3 side chain; linkers in the order of their positions; H or OH if unused. Positions of bridges follow the written chain, without caps; N, C: chain ends. Non-standard residues stand in square brackets, D forms with d. Residues, ends and D or L forms follow the SMILES beside them. *: point of attachment. pTerphenylCO(4''-OnC5H11) = CCCCCOc1ccc(-c2ccc(-c3ccc(C(=O)*)cc3)cc2)cc1; Orn(4R-OH,5R-OH) = O=C([C@H](C[C@@H](O)[C@@H](O)N[*:3])N[*:1])[*:2]; hTyr(3S-OH,4S-OH) = N[C@H](C(=O)O)[C@H](O)[C@@H](O)c1ccc(O)cc1; Pro(3S-OH,4S-Me) = C[C@H]1CN[C@H](C(=O)O)[C@H]1O; Hyp = O=C(O)[C@@H]1C[C@@H](O)CN1

COMPOUND	tissue level at time at 12 h (ng/g)
CCCCCOc1ccc(-c2ccc(-c3ccc(C(=O)N[C@H]4C[C@@H](O)[C@@H](O)NC(=O)[C@@H]5[C@@H](O)[C@@H](C)CN5C(=O)[C@H]([C@@H](C)O)NC(=O)[C@H]([C@H](O)[C@@H](O)c5ccc(O)cc5)NC(=O)[C@@H]5C[C@@H](O)CN5C(=O)[C@H]([C@@H](C)O)NC4=O)cc3)cc2)cc1 [anidulafungin] ({pTerphenylCO(4''-OnC5H11)}-[Orn(4R-OH,5R-OH)]T[Hyp][hTyr(3S-OH,4S-OH)]T[Pro(3S-OH,4S-Me)]; lactam 1-C)	2340
